# System: CAKI-1 renal
# measurement description: NCI tumour cell line growth inhibition, 48 h
assay endpoint: TGI

Sample records with TGI:
CC(=O)NNc1nc(C)c(C(=O)NNC(=O)C(=O)Nc2ccc(Cl)cc2Cl)s1	75.5 µM
C[N+]1(CCN[N+]2(C)CCCCC2)CCc2ccccc2C1 (stereo not given)	> 100 µM
CC(=N\N)/C(C)=N/N=C(C)/C(C)=N/N=C(C)/C(C)=N/N	> 100 µM
CN(C)C(=S)SCC(=O)Nc1ccccc1	> 100 µM
O=C(Nc1nc2ccccc2s1)Nc1ccc([N+](=O)[O-])cc1Cl	16.2 µM
O=C1c2cn[nH]c2C(c2ccccc2)N1c1ccccc1 (stereo not given)	> 10 µM

Reported TGI, molecule CC(=O)Oc1ccc(/C=C/C(=O)O[C@@H](C(=O)O)[C@@H](OC(=O)/C=C/c2ccc(OC(C)=O)c(OC(C)=O)c2)C(=O)O)cc1OC(C)=O : ____
> 100 µM

Reported TGI, molecule O=C1NC(=NCCCc2ccccc2)S/C1=C\c1ccc2ncccc2c1 : ____
> 18.2 µM

Reported TGI, molecule CC(=O)[O][Hg][c]1c(C)c(C)cc(C)c1C : ____
5.4 µM

Reported TGI, molecule CC1(c2ccc(Cl)cc2)C2C(=O)NC(=O)C1C(=O)NC2=O (stereo not given) : ____
> 100 µM

* * *

Reported TGI is given for each of the following compounds.
# Tested on: SF-295 CNS
# measurement description: NCI tumour cell line growth inhibition, 48 h

Sample records with TGI:
CC(=O)OC1COC(n2c(=S)n(-c3ccccc3)c(=O)c3ccccc32)C(OC(C)=O)C1OC(C)=O (centres undefined)	85.7 µM
CCOc1ccc(NC(=O)CC2C(=O)Nc3ccccc3S2(=O)=O)cc1 (centres undefined)	> 100 µM
CC(=N\N)/C(C)=N/N=C(C)/C(C)=N/N=C(C)/C(C)=N/N	> 100 µM
CN1CCN(CCCOc2cccc3nc(Nc4ccc(Cl)c(C(F)(F)F)c4)ccc23)CC1	3.38 µM
Fc1cccc(F)c1C1SCc2nc3ccc(Cl)cc3n21 (centres undefined)	> 100 µM
CN1C(=O)C2(c3ccccc31)N(c1ccc(Cl)cc1)C(=O)C2(c1ccccc1)c1ccccc1 (centres undefined)	> 100 µM
O=C1Nc2ccccc2/C1=c1\[nH]c(=O)/c(=C\c2ccc(OCc3ccccc3)cn2)[nH]c1=O	50.5 µM
CSC1NC(c2ccc(Cl)cc2)=C(C#N)C(=O)N1C1OCC(OC(C)=O)C(OC(C)=O)C1OC(C)=O (centres undefined)	> 100 µM
COc1cc2cc(Oc3ccc(NC(=O)Nc4ccc(Cl)c(Cl)c4)cc3)c(C)nc2cc1OC	6.08 µM
Cn1cc(C2=C(c3cn(CCCCCSC(=N)N)c4ccccc34)C(=O)NC2=O)c2ccccc21	5.38 µM

Provide value of TGI for this record tested with SF-295 CNS: CC(=O)N(O)c1ccc(-c2nc3ccccc3s2)cc1
> 100 µM

Provide value of TGI for this record tested with SF-295 CNS: O=C1Nc2ccccc2Nc2ccncc21
> 100 µM

Provide value of TGI for this record tested with SF-295 CNS: NNC(=O)c1cc(=O)[nH][nH]1
> 100 µM

* * *

# Tested on: DU-145 prostate
# measurement description: NCI tumour cell line growth inhibition, 48 h
assay endpoint: log10 of TGI (log10 of the value in µM)
Heads up, the numbers here are log10 of TGI in µM units.

O=C(Nc1nc2ccccc2s1)Nc1ccc([N+](=O)[O-])cc1Cl	0.89

Reported log10 of TGI, compound NS(=O)(=O)OCCCCCCCOS(N)(=O)=O : ____
2.94

Reported log10 of TGI, compound c1ccc2c3c([nH]c2c1)C(c1ccc(C2NCCc4c2[nH]c2ccccc42)cc1)NCC3 (stereo not given) : ____
0.33

Reported log10 of TGI, compound O=C(CN1C(=O)S/C(=C\C(Cl)=C\c2ccccc2)C1=O)NC1C=CS(=O)(=O)C1 (stereo not given) : ____
0.63

Reported log10 of TGI, compound CN(CCCNC(=O)CCOCCOCCOCCNC(=O)Cc1ccc2ccc3cccc4ccc1c2c34)CCCNc1cc(-c2ccc3ccccc3c2)nc2ccccc12 : ____
0.08

* * *

# Tested on: OVCAR-3 ovarian
# measurement description: NCI tumour cell line growth inhibition, 48 h
Reported TGI is given for each of the following compounds.

Sample records with TGI:
ClC(Cl)[Si]12OCCN(CCO1)CCO2	> 100 µM
CC[C@H](C)[C@H](NC(=O)CN(C)C)C(=O)N(C)[C@H](C[C@@H](OC(C)=O)c1nc(C(=O)NC23CC(C(=O)OC)(C2)C3)cs1)C(C)C	> 7.19 µM
O=C1Nc2ccccc2Nc2ccncc21	> 100 µM
C[C@]12CCC3[C@@H](CC[C@@H]4c5nonc5CC[C@]34C)C1CC[C@@H]2O (stereo partly drawn)	62.1 µM

Provide value of TGI for this record tested with OVCAR-3 ovarian: CC(=O)N1CCn2c1nc1cc(Cl)ccc12
> 100 µM

Provide value of TGI for this record tested with OVCAR-3 ovarian: CCOC(=O)C1=COC(C)(CCc2ccccc2)CC1=O (stereo not drawn)
> 100 µM

Provide value of TGI for this record tested with OVCAR-3 ovarian: N#CC1c2ccccc2C=CN1C(=O)N(c1ccccc1)c1ccccc1 (stereo not drawn)
3.18 µM

Provide value of TGI for this record tested with OVCAR-3 ovarian: CC(=O)[CH-]C(=O)c1ccccc1.CC(=O)[CH-]C(=O)c1ccccc1.C[C@]12CCC(=O)C=C1CC[C@@H]1C2CC[C@@]2(C)C1CC[C@]2(C)[O-].C[C@]12CCC(=O)C=C1CC[C@@H]1C2CC[C@@]2(C)C1CC[C@]2(C)[O-].Cl.[Ti+4] (stereo partly drawn)
> 100 µM

Provide value of TGI for this record tested with OVCAR-3 ovarian: CCOC(=O)N(c1ccccc1)N(CC)C(=O)/C(C)=N/Nc1ccc([N+](=O)[O-])cc1
31.1 µM

* * *

# Tested on: MALME-3M melanoma
# measurement description: NCI tumour cell line growth inhibition, 48 h
assay endpoint: TGI

Sample records with TGI:
O=C1/C=C/[C@@H](O)[C@@H]2C[C@@H](O)C[C@H]2/C=C/CCC[C@H](C(F)(F)F)O1	0.292 µM
COc1ccccc1C[C@@H]1OC2(C=CC(=O)C=C2)O[C@H]1Cc1ccccc1OC	21.3 µM

Reported TGI, compound ClC(Cl)[Si]12OCCN(CCO1)CCO2 : ____
> 100 µM

Reported TGI, compound COc1cc2nc3cc([N+](=O)[O-])ccc3c(NCCNCC(C)(C)O)c2cc1OC : ____
1.97 µM

Reported TGI, compound N#C[C@H](c1nc2ccccc2s1)c1nc2ccccc2nc1Cl : ____
> 100 µM

Reported TGI, compound O=C(CCc1ccccc1)ON1C(=S)C(c2ccccc2)(c2ccccc2)N=C1Sc1ccccc1 : ____
> 100 µM

Reported TGI, compound COc1ccc2c(OCc3nnc4ccc(-c5ccccc5)nn34)ccnc2c1 : ____
> 100 µM

* * *

# Tested on: EKVX NSCLC
# measurement description: NCI tumour cell line growth inhibition, 48 h
assay endpoint: TGI

Sample records with TGI:
CCSc1c2ccccc2c(-c2nc(F)nc(F)n2)n1CCc1ccccc1	> 100 µM
COc1cc(-c2ccccc2N)c2cccnc2c1OC	13.8 µM
CCOC(=O)Cc1nc2c(N)ncnc2n1C1OC(COC(C)=O)C(OC(C)=O)C1OC(C)=O (stereo unspecified)	> 100 µM
CN(c1ccccc1)c1c(Cl)c(=O)oc2c1ccc1occc12	> 100 µM
O=C1Nc2ccccc2Nc2ccncc21	> 100 µM

Reported TGI, molecule O=C(CC(Cl)=C(Cl)Cl)c1cccc(Cl)c1Cl : ____
> 100 µM

* * *

Reported TGI is given for each of the following molecules.
# Test system: PC-3 prostate
# measurement description: NCI tumour cell line growth inhibition, 48 h

Sample records with TGI:
CSc1c(C(=O)Nc2ccc(Cl)cc2)c(N)n(N)c(=O)c1C#N	> 100 µM
COc1cc(-c2ccccc2N)c2cccnc2c1OC	22 µM
C[N+]1(CCN[N+]2(C)CCCCC2)CCc2ccccc2C1 (stereo unspecified)	> 100 µM
O=C1c2ccccc2C(=O)c2c(OCCOCCO)cccc21	> 100 µM
C=CC(=O)N1CC2(CC(n3nc(-c4ccc5c(cnn5C)c4)c(-c4c(Cl)c(C)cc5[nH]ncc45)c3C)C2)C1	22.8 µM

Now turn to the next molecule.
Reported TGI, molecule CC(C)C1N(C)c2ccc(Cl)cc2[C@H]2c3ccccc3CCN12 (stereo partly specified) : ____
> 100 µM

* * *

# System: SNB-19 CNS
# measurement description: NCI tumour cell line growth inhibition, 48 h
assay endpoint: TGI

Sample records with TGI:
COC(=O)CSSCc1ccc([N+](=O)[O-])cc1	77.2 µM
CC(C)(C)OC(=O)NCCCCC(NC(=O)c1ccccc1)C(N)=O (configuration not stated)	> 100 µM
CN(c1ccccc1)c1c(Cl)c(=O)oc2c1ccc1occc12	> 100 µM
CN(C)c1cccc(NC2=NCCO2)c1	> 100 µM
O=C(CC(Cl)=C(Cl)Cl)c1cccc(Cl)c1Cl	> 100 µM
O=C1/C=C/[C@@H](O)[C@@H]2C[C@@H](O)C[C@H]2/C=C/CCC[C@H](C(F)(F)F)O1	> 100 µM

Reported TGI, compound O=C(CCc1ccccc1)On1c(-c2ccccc2)nc2ccccc2c1=S : ____
> 100 µM

Reported TGI, compound Nc1ncnc2c1ncn2C1CC(OCc2ccccc2[N+](=O)[O-])C(CO)O1 (configuration not stated) : ____
> 50 µM

Reported TGI, compound C(=C\N1CCCCC1)/c1nnnn1-c1ccccc1 : ____
> 100 µM

Reported TGI, compound CCCC(CCN)(CCN)[N+](=O)[O-] : ____
> 100 µM

Reported TGI, compound COc1cc(-c2nn(-c3cccc(NC(=O)c4ccc(Cl)c(C(F)(F)F)c4)c3)cc2-c2ccncc2)ccc1Cl : ____
> 32.5 µM

Reported TGI, compound CC(=O)[O][Hg][c]1c(C)c(C)cc(C)c1C : ____
3.76 µM
